Documented GI50 across a set of compounds
system: UACC-257; assay: NCI tumour cell line growth inhibition, 48 h
Activity calls are given as the source filed them. Rule as the data show it: active = GI50 up to about 1.1 µM and inactive = higher.
VALUE_TYPE: GI50

[
  {
    "COMPOUND": "CCCCC(C)(C/C=C/[C@@H]1[C@@H](C(O)CCCCCC(=O)OC)C(=O)C[C@H]1O[Si](C)(C)C(C)(C)C)O[Si](C)(C)C (stereo not given in full)",
    "OBSERVED_RESULT": "62.1 µM (inactive)"
  },
  {
    "COMPOUND": "CCC1OC2C(CC=C(C)C)=C3OC(C)(O)C(C)(CC)C(O)C3=C3OC(=O)C=C1C32 (stereo not given)",
    "OBSERVED_RESULT": "33.9 µM (inactive)"
  },
  {
    "COMPOUND": "COC1=C(C(=O)OC(C)(C)C)C23CCCCC2(C(C(=O)OC(C)(C)C)=C(OC)C3C(=O)OC(C)(C)C)C1C(=O)OC(C)(C)C (stereo not given)",
    "OBSERVED_RESULT": "6.1 µM (inactive)"
  },
  {
    "COMPOUND": "CC(=O)/C=C/CCC(=O)/C=C/C(=O)OC(CCC(=O)/C=C/C(=O)O)CC(C)=O (stereo not given)",
    "OBSERVED_RESULT": "> 100 µM (inactive)"
  },
  {
    "COMPOUND": "CCOC(=O)CC(=O)Nc1cccc2nc[nH]c12",
    "OBSERVED_RESULT": "> 100 µM (inactive)"
  }
]
